B1: RHOBTB2 (parent)
chain: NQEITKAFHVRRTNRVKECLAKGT

Variants of: B1
Test: protein stability index of a GFP-peptide fusion (GPS, HEK-293T) (PSI 1-6); higher = more stable;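 also: lentivirally expressed fusions sorted by FACS into six bins by GFP to DsRed ratio, PSI derived from sequencing read proportions per bin multiplied by bin number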
Details: c terminus: a fixed tail appended
protein stability index values for the variants below.

Answered cases to consult:
# sequence text, protein stability index
records = [
    ("NQELTKAFHVRRTNRVKECLAKGT", 3.51),
    ("GQEITKAFHVRRTNRVKECLAKGT", 2.88),
    ("NQEITKAFHVRRTNRVKGCLAKGT", 2.88),
    ("NQEISKAFHVRRTNRVKECLAKGT", 3.48),
    ("NQEITKAFWVRRTNRVKECLAKGT", 2.5),
    ("NQEITKAFHVRRTNRVKEVLAKGT", 3.08),
    ("NQEITKAFHVRRTNRVMECLAKGT", 2.54),
    ("NQEITKAFHVRRTNRVKECQAKGT", 3.74),
]

Can you share its protein stability index? I mean this variant: NQEITKAFHVRRTNRVKEKLAKGT 3.46

Can you share its protein stability index? I mean this variant: NQEINKAFHVRRTNRVKECLAKGT 3.22

Can you share its protein stability index? I mean this variant: NQEITKAFHVRRTNRVKECLSKGT 2.48

Can you share its protein stability index? I mean this variant: NQEITKAFHVRTTNRVKECLAKGT 3.69

Can you share its protein stability index? I mean this variant: NQEITKAFHVRLTNRVKECLAKGT 2.16

Can you share its protein stability index? I mean this variant: NQEITKAFHVRRTNRVKECLAKGD 3.46

Can you share its protein stability index? I mean this variant: NQEPTKAFHVRRTNRVKECLAKGT 4.43

Can you share its protein stability index? I mean this variant: NQEITKAFHVRRMNRVKECLAKGT 3.57

Can you share its protein stability index? I mean this variant: NQEITKAFHVRRTNDVKECLAKGT 4.21

Can you share its protein stability index? I mean this variant: NQEITKAFHVRRTNRVCECLAKGT 2.22

Can you share its protein stability index? I mean this variant: NQEITKAFHVRRTNRVKESLAKGT 2.81
